Molecular target: SMNDC1 Tudor domain (Homo sapiens, UniProt O75940)
Sequence (O75940 65-128): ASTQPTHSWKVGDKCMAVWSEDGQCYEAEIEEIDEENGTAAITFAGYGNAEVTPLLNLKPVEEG
Assay: AlphaScreen, SMNDC1 Tudor domain / sDMA-peptide interaction
pIC50: −log10 of the molar value.
We use 6 as the dividing line for pIC50: on or above the line is true (1), below is false (0).

O=C(Nc1nc(-c2cccs2)cs1)c1ccc(S(=O)(=O)N2CCCC2)cc1
false (0)

Moving on to the next compound.
Determine whether this compound has pIC50 no lower than 6: COc1ccc(Cc2nnc(NC(=O)Cc3cccs3)s2)cc1OC false (0)

* * *

Target: SMN Tudor domain (Homo sapiens)
Assay: AlphaScreen, SMN Tudor domain / sDMA-peptide interaction
Kindly supply the reported pIC50 values for the records listed here.
One number for each entry, as −log10 of the molar value.

Here are 6 compounds together with their reported answers.
COc1ccc(CCNc2nc(-c3ccccn3)cs2)cc1OC
5.70
Nc1csc(-c2ccccn2)n1
5.27
Cc1ccc(-c2csc(NC(=O)c3ccc(S(=O)(=O)N4CCCC4)cc3)n2)o1
4.53
N#Cc1cccc(C(=O)Nc2nc(-c3ccc[nH]3)cs2)c1
5.08
COc1ccc(Cc2nnc(NC(=O)Cc3cccs3)s2)cc1OC
5.24
N=C(N)Nc1nc(-c2ccccn2)cs1
4.88

Give measured pIC50 for every item shown.
1. Cc1ccnc2nc(C(=O)Nc3nc(-c4ccccn4)cs3)nn12
2. CN(C)S(=O)(=O)c1ccc(C(=O)Nc2nc(-c3ccccn3)c(Br)s2)cc1
3. CC(C)(C)OC(=O)NCCNC(=O)c1ccc(C(=O)Nc2nc(-c3ccccn3)cs2)cc1
4. CCn1ccc(C(=O)Nc2nc(-c3ccccn3)cs2)n1

1: 5.87; 2: 5.42; 3: 4.81; 4: 5.94

* * *

Target: SMNDC1 Tudor domain (Homo sapiens, UniProt O75940)
Experiment: AlphaScreen, SMNDC1 Tudor domain / sDMA-peptide interaction
pIC50: −log10 of the molar value.
We use 6 as the dividing line for pIC50: on or above the line is yes (1), below is no (0).

Reference set, count: 4
N=C(N)Nc1nc(-c2ccccn2)cs1 [compound 19]
no (0)
O=C(Nc1nc(-c2ccccn2)cs1)C1CC1 [compound 20]
no (0)
Nc1ncc(-c2ccccn2)s1 [compound 15]
no (0)
Cc1ccc(-c2csc(NC(=O)c3ccc(S(=O)(=O)N4CCCC4)cc3)n2)o1 [compound 6]
no (0)

Determine whether this compound has pIC50 no lower than 6: CN(C)S(=O)(=O)c1ccc(C(=O)Nc2nc(-c3ccncc3)cs2)cc1 [compound 4] no (0)

Determine whether this compound has pIC50 no lower than 6: N#Cc1cccc(C(=O)Nc2nc(-c3ccc[nH]3)cs2)c1 [compound 8] no (0)

* * *

Target: SMN Tudor domain (Homo sapiens, UniProt Q16637)
Sequence (Q16637 84-147): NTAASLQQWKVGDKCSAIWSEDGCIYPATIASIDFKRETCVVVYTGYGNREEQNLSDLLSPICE
Experiment: AlphaScreen, SMN Tudor domain / sDMA-peptide interaction
METRIC: IC50 (µM)
Numbers only, in µM.

Here are 3 compounds together with their reported answers.
CCc1ccccc1NC(=O)c1cccc2c1C(=O)N(c1ccc(OC)cc1)C2
3.9
Cc1cc(C)n2c(Nc3ccccc3C)c(-c3ccccn3)nc2n1
1.2
Nc1ncc(-c2ccccn2)s1
15.2

Query compound follows.
Sample CC(C)(C)CNC(=O)c1ccc(C(=O)Nc2nc(-c3ccccn3)cs2)cc1 — what was its IC50? 9.82

* * *

Biological target: SMNDC1 Tudor domain (Homo sapiens, UniProt O75940)
Sequence (O75940 65-128): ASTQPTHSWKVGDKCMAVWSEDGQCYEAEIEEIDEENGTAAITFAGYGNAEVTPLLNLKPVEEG
Experiment: AlphaScreen, SMNDC1 Tudor domain / sDMA-peptide interaction
METRIC: log10 IC50 (log10 of the value in µM)
// do not treat as linear: log10 of IC50, unit µM

CCc1sc(NC(=O)c2ccc(S(=O)(=O)N(C)C)cc2)nc1-c1ccccn1
0.15
Cc1ccnc2nc(C(=O)Nc3nc(-c4ccccn4)cs3)nn12
-0.09
Cc1cc(C)n2c(Nc3ccccc3C)c(-c3ccccn3)nc2n1
0.04
O=C(Nc1nc(-c2ccccn2)cs1)c1ccc(S(=O)(=O)N2CCOCC2)cc1
-0.11

Give measured log10 IC50 for every item shown.
1. CCc1ccccc1NC(=O)c1cccc2c1C(=O)N(c1ccc(OC)cc1)C2
2. CCn1ccc(C(=O)Nc2nc(-c3ccccn3)cs2)n1
3. O=C(O)c1ccc(C(=O)Nc2nc(-c3ccccn3)cs2)cc1
4. O=S(=O)(Nc1nc(-c2ccccn2)cs1)c1ccccc1
5. COc1ccccc1-c1csc(NC(=O)c2ccc(S(=O)(=O)N(C)C)cc2)n1
6. CC(C)(C)CNC(=O)c1ccc(C(=O)Nc2nc(-c3ccccn3)cs2)cc1

0.15
0.04
0.04
0.00
-0.04
0.17

Give measured log10 IC50 for every item shown.
1. CN(C)S(=O)(=O)c1ccc(C(=O)Nc2nc(-c3ccccn3)c(Br)s2)cc1
2. Nc1nc(-c2ccccn2)co1
3. Nc1csc(-c2ccccn2)n1
4. Cc1ccc(C(=O)Nc2nc(-c3ccccn3)cs2)o1

1. 0.14
2. 1.32
3. 0.25
4. -0.33

Give measured log10 IC50 for every item shown.
1. COc1ccc(CCNc2nc(-c3ccccn3)cs2)cc1OC
2. Cc1sc(NC(=O)c2ccc(S(=O)(=O)N(C)C)cc2)nc1-c1ccccn1
3. CC1NC(=O)NC1CCCCCC(=O)OCC(=O)c1ccccc1 (stereo not drawn)
4. O=C(Nc1nc(-c2ccccn2)cs1)c1ccc(-n2cnnn2)cc1
5. CN(C)S(=O)(=O)c1ccc(C(=O)Nc2nc(-c3ccccn3)cs2)cc1

1: 0.15; 2: -0.35; 3: -0.72; 4: -0.14; 5: -0.30
